Molecular target: T1, Recombinant human MASP1 enzyme (fragment corresponding to amino acids 297-699, C-terminal His Tag) (human, UniProt P48740 297-699)
T1 sequence: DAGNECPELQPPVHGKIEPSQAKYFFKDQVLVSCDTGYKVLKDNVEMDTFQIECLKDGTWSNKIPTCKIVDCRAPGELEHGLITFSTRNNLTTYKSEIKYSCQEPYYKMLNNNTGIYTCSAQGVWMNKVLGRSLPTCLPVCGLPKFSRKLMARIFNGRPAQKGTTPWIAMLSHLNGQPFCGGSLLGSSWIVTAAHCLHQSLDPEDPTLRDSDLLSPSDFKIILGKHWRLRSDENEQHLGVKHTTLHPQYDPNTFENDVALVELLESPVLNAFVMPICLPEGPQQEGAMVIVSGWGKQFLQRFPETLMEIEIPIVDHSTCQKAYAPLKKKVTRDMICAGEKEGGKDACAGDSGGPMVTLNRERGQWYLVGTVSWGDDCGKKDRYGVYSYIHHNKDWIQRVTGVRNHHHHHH
Experiment: cell-based or functional assay
Numbered stars: 1 amine (or outer) side, 2 acyl side, 3 side chain; on linkers, the order of the positions; unused ones are H or OH. Bridge positions count the residues as written; N and C are the ends. Square brackets hold non-standard residues; d marks the D form. Ends that are not written are not given here. X12 = (S)‑(trifluoromethyl)‑L‑cysteine, O=C([C@H](CSC(F)(F)F)N[*:1])[*:2]; tBuAla = CC(C)(C)C[C@H](N)C(=O)O; Pen = CC(C)(S)[C@H](N)C(=O)O; NMeC = CN[C@@H](CS)C(=O)O; Orn = NCCC[C@H](N)C(=O)O
result-type: human MASP1 IC50 (nM)
Quick note: give the figure in nM, leave out the unit.

binder	human MASP1 IC50, nM
YICSRS[tBuAla]PPI[NMeC]I-NH2 (disulfide 3-11; N-terminus assumed; SMILES CC[C@H](C)[C@H](NC(=O)[C@@H]1CSSC[C@H](NC(=O)[C@@H](NC(=O)[C@@H](N)Cc2ccc(O)cc2)[C@@H](C)CC)C(=O)N[C@@H](CO)C(=O)N[C@@H](CCCNC(=N)N)C(=O)N[C@@H](CO)C(=O)N[C@@H](CC(C)(C)C)C(=O)N2CCC[C@H]2C(=O)N2CCC[C@H]2C(=O)N[C@@H]([C@@H](C)CC)C(=O)N1C)C(N)=O) [YIC+SRS-((tBu)A)-PPI-((N-Me)C)+I-NH2]	4.5

Next up:
Lookup: Look up human MASP1 IC50 for this binder: [Orn]ICSRS[X12]PPI[Pen]IP-NH2 (disulfide 3-11; N-terminus assumed; SMILES CC[C@H](C)[C@H](NC(=O)[C@@H](N)CCCN)C(=O)N[C@H]1CSSC(C)(C)[C@@H](C(=O)N[C@H](C(=O)N2CCC[C@H]2C(N)=O)[C@@H](C)CC)NC(=O)[C@H]([C@@H](C)CC)NC(=O)[C@@H]2CCCN2C(=O)[C@@H]2CCCN2C(=O)[C@H](CSC(F)(F)F)NC(=O)[C@H](CO)NC(=O)[C@H](CCCNC(=N)N)NC(=O)[C@H](CO)NC1=O) [(Orn)-IC+SRS-((S)-(trifluoromethyl)-L-cysteine)-PPI-(Pen)+IP-NH2]
Found: 8.1
